In this section, each of the binders is paired with its reported pEC50.
Target: T1, human SLC34A2 (human, UniProt O95436 1-690)
T1 construct: whole, on cells; also called human solute carrier 34 A2; NaPi2b
T1 sequence (looked up): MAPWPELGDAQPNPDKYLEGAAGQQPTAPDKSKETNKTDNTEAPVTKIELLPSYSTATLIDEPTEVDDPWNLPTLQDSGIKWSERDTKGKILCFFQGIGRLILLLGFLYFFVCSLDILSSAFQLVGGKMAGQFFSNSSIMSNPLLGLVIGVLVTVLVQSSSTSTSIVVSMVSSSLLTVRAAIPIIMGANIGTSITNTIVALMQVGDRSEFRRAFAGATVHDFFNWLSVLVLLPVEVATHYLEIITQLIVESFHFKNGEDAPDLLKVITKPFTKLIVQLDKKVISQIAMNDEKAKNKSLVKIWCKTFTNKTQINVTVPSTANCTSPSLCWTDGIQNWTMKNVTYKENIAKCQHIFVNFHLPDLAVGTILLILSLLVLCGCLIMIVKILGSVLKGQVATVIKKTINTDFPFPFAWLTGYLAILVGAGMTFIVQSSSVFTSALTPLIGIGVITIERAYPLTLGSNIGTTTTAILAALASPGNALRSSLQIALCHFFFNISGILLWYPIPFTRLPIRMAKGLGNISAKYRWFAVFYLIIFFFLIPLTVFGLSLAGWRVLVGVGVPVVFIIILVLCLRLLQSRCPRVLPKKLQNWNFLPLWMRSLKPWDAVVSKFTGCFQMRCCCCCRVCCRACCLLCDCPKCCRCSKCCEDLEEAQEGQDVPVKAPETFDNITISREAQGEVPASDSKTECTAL
Assay: FACS, OVCAR3 cells
Keep in mind that pEC50 stands for -log10 of concentration in molar terms.

The examples below pair each entry with its known result.
62G10E4G8.p3.z1 hIgG1 (antibody, V domains shown, humanized hIgG1) VH: QVQLVQSGAEVKKPGASVKVSCKASGYTFPSYITHWVRQAPGQGLEWMGAIYPGNADTSYIQKFKGRVTMTRDTSTSTVYMELSSLRSEDTAVYYCARGTYGTSAWFTYWGQGTLVTVSS VL: EIVMTQSPATLSVSPGERATLSCRARQNIGNNLYWYQQKPGQAPRLLIYYASQSISGIPARFSGSGSGTEFTLTISSLQSEDFAVYYCQQSFSWPLTFGQGTKLEIK; 6.03
30H9B8F9.p1.z8 hIgG1 (antibody, V domains shown, humanized hIgG1) VH: QVQLVQSGAEVKKPGASVKVSCKTSGYTFTTNNMHWVRQAPGQGLEWIGAIYPGSGATAYNQKFKGRVTMTADTSTSTVYMELSSLRSEDTAVYYCARGMYGHGAMDYWGQGTLVTVSS VL: DIVMTQSPSFLSASVGDRVTITCKASQDVGTAVAWYQQKPGKSPKLLIYWATTRHSGVPDRFTGSGSGTDFIFTISSVQPEDFATYFCQQYSSNPLTFGAGTKLEIK; 8.72
30H9B8F9.p1.z9 hIgG1 (antibody, V domains shown, humanized hIgG1) VH: QVQLVQSGAEVVKPGASVKVSCKTSGYTFTTNNMHWVRQAPGQGLEWIGAIYPGSGATAYNQKFKGRVTLTADKSTSTAYMELSSLRSEATAVYYCARGMYGHGAMDYWGQGTLVTVSS VL: DIQLTQSPSFLSASVGDRVTITCKASQDVGTAVAWYQQKPGKAPKLLIYWATTRHSGVPSRFSGSGSGTEFTLTISSLQPEDFATYYCQQYSSNPLTFGQGTKLEIK; 8.80
62G10E4G8.p3.z14 hIgG1 (antibody, V domains shown, humanized hIgG1) VH: QVQLVQSGAEVVKPGASVKMSCKASGYTFPSYITHWVKQAPGQGLEWIGAIYPGNADTSYIQKFKGRATLTADKSTSTAYMELSSLRSEDTAVYYCARGTYGTSAWFTYWGQGTLVTVSS VL: EIVMTQSPATLSVSPGERATLSCRARQNIGNNLYWYQQKPGQSPRLLIKYASQSISGIPARFSGSGSGTEFTLTISSLQSEDFAVYFCQQSFSWPLTFGQGTKLEIK; 8.34

Determine from records and report pEC50 for 62G10E4G8.p3.z11 hIgG1 (antibody, V domains shown, humanized hIgG1) VH: QVQLVQSGAEVKKPGASVKVSCKASGYTFPSYITHWVKQAPGQGLEWIGAIYPGNADTSYIQKFKGRVTLTADKSTSTAYMELSSLRSEDTAVYYCARGTYGTSAWFTYWGQGTLVTVSS VL: EIVLTQSPATLSVSPGERATLSCRARQNIGNNLYWYQQKPGQSPRLLIKYASQSISGIPSRFSGSGSGTDFTLTISSLQSEDFAVYFCQQSFSWPLTFGQGTKLEIK
8.36

Determine from records and report pEC50 for 62G10E4G8.p3.z10 hIgG1 (antibody, V domains shown, humanized hIgG1) VH: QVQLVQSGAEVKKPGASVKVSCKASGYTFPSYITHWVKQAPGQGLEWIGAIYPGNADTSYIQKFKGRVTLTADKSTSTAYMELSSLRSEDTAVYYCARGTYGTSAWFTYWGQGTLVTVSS VL: EIVMTQSPATLSVSPGERATLSCRARQNIGNNLYWYQQKPGQSPRLLIKYASQSISGIPARFSGSGSGTEFTLTISSLQSEDFAVYFCQQSFSWPLTFGQGTKLEIK
8.31

Determine from records and report pEC50 for 30H9B8F9.p1.z3 hIgG1 (antibody, V domains shown, humanized hIgG1) VH: QVQLVQSGAEVKKPGASVKVSCKASGYTFTTNNMHWVRQAPGQGLEWMGAIYPGSGATAYNQKFKGRVTMTRDTSTSTVYMELSSLRSEDTAVYYCASGMYGHGAMDYWGQGTLVTVSS VL: DIQMTQSPSFLSASVGDRVTITCKASQDVGTAVAWYQQKPGKSPKLLIYWATTRHSGVPDRFSGSGSGTEFIFTISSVQPEDFATYFCQQYSSNPLTFGAGTKLEIK
8.62

Determine from records and report pEC50 for 62G10E4G8.p3.z7 hIgG1 (antibody, V domains shown, humanized hIgG1) VH: QVQLVQSGAEVKKPGASVKVSCKASGYTFPSYITHWVRQAPGQGLEWIGAIYPGNADTSYIQKFKGRVTMTADKSTSTVYMELSSLRSEDTAVYYCARGTYGTSAWFTYWGQGTLVTVSS VL: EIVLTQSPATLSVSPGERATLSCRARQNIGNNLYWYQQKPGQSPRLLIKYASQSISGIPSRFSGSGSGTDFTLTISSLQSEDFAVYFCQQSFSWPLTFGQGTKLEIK
8.22

Determine from records and report pEC50 for 62G10E4G8.p3.z12 hIgG1 (antibody, V domains shown, humanized hIgG1) VH: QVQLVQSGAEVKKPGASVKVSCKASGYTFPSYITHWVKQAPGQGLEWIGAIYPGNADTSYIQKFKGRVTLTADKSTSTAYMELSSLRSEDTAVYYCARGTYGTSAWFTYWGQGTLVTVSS VL: EIVLTQSPATLSASPGERATLSCRARQNIGNNLYWYQQKPGQSPRLLIKYASQSISGIPSRFSGSGSGTDFTLTISSVQSEDFAVYFCQQSFSWPLTFGAGTKLEIK
8.53
